measured.on: human activated kallikrein enzyme (Homo sapiens)
protocol.notes: Plasma kallikrein inhibition, fluorogenic PFR-AMC substrate, 500 pM activated kallikrein format
Format: biochemical
particulars: 500 pM activated kallikrein, 300 uM PFR-AMC, 30 min preincubation, 10 min reaction; read-out: Primary Dose Response Assay: Average EC50
pEC50: −log10 of the molar value.
Recorded measurements of pEC50, one per entry
value.kind: pEC50

- CCOC(=O)CCc1cc(C2CC2)cn2cc(CNc3cc(NC(=O)[C@H]4C[C@@H]4c4cccc(Cl)c4)ncn3)nc12 (racemic): 8.00 to 9.00
- Cc1ccnc([C@H]2C[C@@H]2C(=O)Nc2nncc(N[C@H](C)c3cn4cc(C5CC5)cc(N5CC(=O)N(C)C5=O)c4n3)n2)n1: > 9.00
- CCN1CCN(c2cc(C3CC3)cn3cc(CNc4ccnc(NC(=O)[C@H]5C[C@@H]5c5cccc(Cl)c5)c4)nc23)CC1: > 9.00

----------
measured.on: human activated kallikrein enzyme (Homo sapiens, UniProt P03952)
Sequence (P03952 391-638 limits assumed): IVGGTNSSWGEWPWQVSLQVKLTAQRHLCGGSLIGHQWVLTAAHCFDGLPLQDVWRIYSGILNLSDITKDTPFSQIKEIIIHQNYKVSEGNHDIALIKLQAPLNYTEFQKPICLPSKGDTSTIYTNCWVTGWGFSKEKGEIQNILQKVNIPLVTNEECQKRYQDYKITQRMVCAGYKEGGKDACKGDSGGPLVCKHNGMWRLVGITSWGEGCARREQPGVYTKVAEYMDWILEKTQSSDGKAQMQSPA
Sequence (P03952 20-390 partner limits assumed): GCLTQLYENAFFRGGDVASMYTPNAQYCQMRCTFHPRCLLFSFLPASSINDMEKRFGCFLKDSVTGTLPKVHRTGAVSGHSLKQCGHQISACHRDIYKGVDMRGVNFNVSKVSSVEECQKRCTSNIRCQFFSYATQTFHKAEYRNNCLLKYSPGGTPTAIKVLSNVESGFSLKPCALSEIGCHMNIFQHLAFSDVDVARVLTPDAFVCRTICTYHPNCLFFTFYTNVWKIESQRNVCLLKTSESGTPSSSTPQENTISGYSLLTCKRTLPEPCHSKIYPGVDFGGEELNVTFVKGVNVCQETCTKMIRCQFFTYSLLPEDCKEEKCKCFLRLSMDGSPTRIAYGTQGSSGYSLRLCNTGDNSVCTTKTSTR
protocol.notes: Plasma kallikrein inhibition, fluorogenic PFR-AMC substrate, 500 pM activated kallikrein format
Assay type: biochemical
particulars: 500 pM activated kallikrein, 300 uM PFR-AMC, 30 min preincubation, 10 min reaction; read-out: Primary Dose Response Assay: Average EC50
pEC50: −log10 of the molar value.
Recorded measurements of pEC50, one per entry
value.kind: pEC50

• O=C(Nc1cc(NCc2cn3cc(C4CC4)ccc3n2)ncn1)[C@H]1C[C@@H]1c1cccc(Cl)c1 (single isomer, unassigned) [Example 57] = 8.00 to 9.00
• Cc1ccnc([C@H]2C[C@@H]2C(=O)Nc2cc(NCc3cn4cc(C5CC5)cc(N5CC(=O)N(C)C5=O)c4n3)ncn2)n1 (single isomer, unassigned) [Example I-260] = > 9.00
• O=C(Nc1cc(NCc2cn3cc(C4CC4)ccc3n2)ccn1)[C@@H]1C[C@]12CCc1ccc(Cl)cc12 (racemic) [Example I-271] = > 9.00
• O=C(Nc1cc(NCc2cn3cc(C4CC4)ccc3n2)ncn1)[C@@]1(F)C[C@@H]1c1cccc(Cl)c1 (racemic) = 7.00 to 8.00
• O=C(NCc1cn(Cc2cn3cc(C4CC4)cc(-n4cnnc4)c3n2)nn1)[C@H]1C[C@@H]1c1cccc(Cl)c1 = 8.00 to 9.00
• O=C(Nc1cc(NCc2cn3cc(C4CC4)cc(CO)c3n2)ccn1)[C@H]1C[C@@H]1c1cccc(Cl)c1 [Example 99] = > 9.00

----------
measured.on: human activated kallikrein enzyme (Homo sapiens)
protocol.notes: Plasma kallikrein inhibition, fluorogenic PFR-AMC substrate, 500 pM activated kallikrein format
Assay type: biochemical
particulars: 500 pM activated kallikrein, 300 uM PFR-AMC, 30 min preincubation, 10 min reaction; read-out: Primary Dose Response Assay: Average EC50
value.kind: EC50

* O=C(Nc1cncc(NCc2cn3cc(C4CC4)ccc3n2)n1)[C@H]1C[C@@H]1c1cccc(Cl)c1 (racemic) | 10 to 100 nM
* Cc1ccnc([C@H]2C[C@@H]2C(=O)Nc2cc(NC(C)c3cn4cc(C5CC5)cc(N5CC(=O)N(CCO)C5=O)c4n3)nc(C3CC3)n2)n1 (stereo partly shown) | 1 to 10 nM
* CN1CCC(F)(c2cc(C3CC3)cn3cc(CNc4cc(NC(=O)[C@H]5C[C@@H]5c5cccc(Cl)c5)ncn4)nc23)CC1 | < 1 nM
* O=C(Nc1cncc(NCc2cn3cc(C4CC4)ccc3n2)c1)[C@H]1C[C@@H]1c1cccc(Cl)c1 (racemic) | 1 to 10 nM
* Cc1ccnc([C@H]2C[C@@H]2C(=O)Nc2cc(N[C@H](C)c3cn4cc(C5(F)CC5)cc(N5CC(=O)N(C)C5=O)c4n3)nc(C)n2)n1 | < 1 nM
* CN1CCN(c2cc(C3CC3)cn3cc(CNc4cc(NC(=O)[C@H]5C[C@@H]5c5cc(Cl)ccn5)ncn4)nc23)CC1 (racemic) | < 1 nM
* Cc1ccnc([C@H]2C[C@@H]2C(=O)Nc2cc(N3C[C@@H](O)C[C@@H]3c3cn4cc(C5CC5)ccc4n3)ncn2)c1F (relative stereo) | 10 to 100 nM
* CN1C(=O)CN(c2cc(C3CC3)cn3cc(CNc4cc(NC(=O)[C@@H]5[C@@H](c6cccc(Cl)c6)C5(F)F)ncn4)nc23)C1=O (racemic) | 1 to 10 nM
* O=C1CN(c2cc(C3CC3)cn3cc([C@H]4C[C@H](O)CN4c4cc(NC(=O)[C@H]5C[C@@H]5c5cc(Cl)ccn5)ncn4)nc23)C(=O)N1 | < 1 nM
* O=C(Nc1cc(NCc2cn3cc(C4CC4)cc(N4CCOCC4=O)c3n2)ncn1)[C@H]1C[C@@H]1c1cccc(Cl)c1 (racemic) | < 1 nM
* Cc1ccnc([C@H]2C[C@@H]2C(=O)Nc2cc(O)cc(OCc3cn4cc(C5CC5)cc(N5CC(=O)N(C)C5=O)c4n3)n2)n1 | 1 to 10 nM
* CN1CCN(C(=O)c2cc(C3CC3)cn3cc(CNc4cc(NC(=O)[C@H]5C[C@@H]5c5cccc(Cl)c5)ncn4)nc23)CC1 | < 1 nM
* O=C(Nc1cc(NCc2cn3cc(C4CC4)ccc3n2)nc(=O)[nH]1)[C@H]1C[C@@H]1c1cccc(Cl)c1 | < 1 nM
* O=C(Nc1cc(NCc2cn3cc(C4CC4)cc(N4CNCC4=O)c3n2)ncn1)[C@H]1C[C@@H]1c1cccc(Cl)c1 | < 1 nM
* CN(C(=O)[C@H]1C[C@@H]1c1cccc(Cl)c1)c1cc(NCc2cn3cc(C4CC4)ccc3n2)ncn1 | > 6000 nM
* COc1ccc(CN2C(=O)CN(c3cc(C4CC4)cn4cc(CNc5ccnc(NC(=O)[C@H]6C[C@@H]6c6cccc(Cl)c6)c5)nc34)C2=O)cc1 | 10 to 100 nM
* O=C(Nc1ncncc1OCc1cn2cc(C3CC3)ccc2n1)[C@H]1C[C@@H]1c1cccc(Cl)c1 | 10 to 100 nM
* Cc1ccnc([C@H]2C[C@@H]2C(=O)Nc2cc(N[C@H](C)c3cn4cc(C5CC5)cc(N5CC(=O)N(C)C5=O)c4n3)nc(CO)n2)n1 | < 1 nM
* Cc1cc2nn(Cc3cn4cc(C5CC5)ccc4n3)cc2c(NC(=O)[C@H]2C[C@@H]2c2cccc(Cl)c2)n1 | 1 to 10 nM
* Cc1ccnc([C@H]2C[C@@H]2C(=O)Nc2cc(SCc3cn4cc(C5CC5)cc(N5CC(=O)N(C)C5=O)c4n3)nc(C)n2)n1 | < 1 nM
* O=C(Nc1nccc2cn(Cc3cn4cc(C5CC5)ccc4n3)nc12)[C@H]1C[C@@H]1c1cccc(Cl)c1 (racemic) | 1 to 10 nM
* COc1cc(NCc2cn3cc(C4CC4)ccc3n2)cc(NC(=O)[C@H]2C[C@@H]2c2cc(Cl)ccn2)n1 | 1 to 10 nM
* O=C(Nc1cc(NCc2cn3cc(C4CC4)cc(OC4CNC4)c3n2)ncn1)[C@H]1C[C@@H]1c1cccc(Cl)c1 | < 1 nM
* Cc1ccnc([C@H]2C[C@@H]2C(=O)Nc2cc(N(CC(=O)O)Cc3cn4cc(C5CC5)cc(N5CC(=O)N(C)C5=O)c4n3)ncn2)n1 | 1 to 10 nM
* O=C(Nc1cc(N(CCO)Cc2cn3cc(C4CC4)ccc3n2)ccn1)[C@H]1C[C@@H]1c1cc(Cl)ccn1 | < 1 nM
